Readings of fold change (FC) for the listed compounds
- system: Tubulin (Homo sapiens) (UniProt P68371+Q9H4B7+P0DPH7+P68366+Q13509+Q71U36+P04350+Q3ZCM7+P07437+P68363+Q9BQE3+Q6PEY2+Q13885+Q9BVA1+Q9BUF5)
- assayInfo: Stabilization of microtubules in human QBI293 cells assessed as fold change in acetylated tubulin levels at 1 uM after 4 hrs by ELISA relative to DMSO
- Type: cell-based
valueKind: fold change (FC)

>  <compound>
Fc1cc(F)c(-c2c(Cl)nc3ncnn3c2NC2CCCC2)c(F)c1

>  <valueKind>
fold change (FC)

>  <resultNumber>
2.03

$$$$
>  <compound>
COc1cc(F)c(-c2c(Cl)nc3ncnn3c2N[C@@H](C)C(F)(F)F)c(F)c1

>  <valueKind>
fold change (FC)

>  <resultNumber>
3.16

$$$$
>  <compound>
C[C@@H](Nc1c(-c2c(F)cc(F)cc2F)c(Cl)nc2ncnn12)C(F)(F)F

>  <valueKind>
fold change (FC)

>  <resultNumber>
1.39

$$$$
>  <compound>
CC(C)CNc1c(-c2c(F)cc(F)cc2F)c(Cl)nc2ncnn12

>  <valueKind>
fold change (FC)

>  <resultNumber>
1.63

$$$$
>  <compound>
Fc1cc(F)c(-c2c(Cl)nc3ncnn3c2NC2CCCCC2)c(F)c1

>  <valueKind>
fold change (FC)

>  <resultNumber>
1.13

$$$$
>  <compound>
C[C@H](Nc1c(-c2c(F)cc([S+](C)[O-])cc2F)c(Cl)nc2ncnn12)C(F)(F)F (stereo not given in full)

>  <valueKind>
fold change (FC)

>  <resultNumber>
0.84

$$$$
>  <compound>
CO[C@H]1C[C@H]2CC[C@@H](C1)N2c1c(-c2c(F)cc(F)cc2F)c(Cl)nc2ncnn12

>  <valueKind>
fold change (FC)

>  <resultNumber>
3.65

$$$$
>  <compound>
C[C@H](Nc1c(-c2c(F)cc(S(C)(=O)=O)cc2F)c(Cl)nc2ncnn12)C(F)(F)F

>  <valueKind>
fold change (FC)

>  <resultNumber>
1.21

$$$$
>  <compound>
C[C@H](Nc1c(-c2c(F)cc(O)cc2F)c(Cl)nc2ncnn12)C(F)(F)F

>  <valueKind>
fold change (FC)

>  <resultNumber>
1.22

$$$$
>  <compound>
CC(Cc1c(-c2c(F)cc(F)cc2F)c(Cl)nc2ncnn12)C(F)(F)F (stereo not given)

>  <valueKind>
fold change (FC)

>  <resultNumber>
2.3

$$$$
>  <compound>
N#Cc1ccc(-c2c(Cl)nc3ncnn3c2N2CCCCCC2)c(F)c1

>  <valueKind>
fold change (FC)

>  <resultNumber>
7.17

$$$$
>  <compound>
C[C@H](Nc1c(-c2c(F)cc([N+](=O)[O-])cc2F)c(Cl)nc2ncnn12)C(F)(F)F

>  <valueKind>
fold change (FC)

>  <resultNumber>
3.24

$$$$
>  <compound>
C[C@H](Nc1c(-c2c(F)cc(S(=O)(=O)CCCN(C)C)cc2F)c(Cl)nc2ncnn12)C(F)(F)F

>  <valueKind>
fold change (FC)

>  <resultNumber>
1.13

$$$$
>  <compound>
CC(C)[C@@H](C)Nc1c(-c2c(F)cc(C#N)cc2F)c(Cl)nc2ncnn12

>  <valueKind>
fold change (FC)

>  <resultNumber>
3.8

$$$$
>  <compound>
Cc1cc(F)c(-c2c(Cl)nc3ncnn3c2N[C@@H](C)C(F)(F)F)c(F)c1

>  <valueKind>
fold change (FC)

>  <resultNumber>
1.62

$$$$
>  <compound>
CC(Nc1c(-c2c(F)cc(F)cc2F)c(Cl)nc2ncnn12)C(F)F (stereo not given)

>  <valueKind>
fold change (FC)

>  <resultNumber>
1.28

$$$$
>  <compound>
Fc1cc(F)c(-c2c(Cl)nc3ncnn3c2N2CCCC2)c(F)c1

>  <valueKind>
fold change (FC)

>  <resultNumber>
1.14

$$$$
>  <compound>
CC(Oc1c(-c2c(F)cc(F)cc2F)c(Cl)nc2ncnn12)C(F)(F)F (stereo not given)

>  <valueKind>
fold change (FC)

>  <resultNumber>
0.91

$$$$
>  <compound>
Fc1cc(F)c(-c2c(Cl)nc3ncnn3c2N2CCCCC2)c(F)c1

>  <valueKind>
fold change (FC)

>  <resultNumber>
2.21

$$$$
>  <compound>
C[C@H](Nc1c(-c2cc(F)cc(F)c2)c(Cl)nc2ncnn12)C(F)(F)F

>  <valueKind>
fold change (FC)

>  <resultNumber>
1.52

$$$$
>  <compound>
C[C@H](Nc1c(-c2ccc(F)c(F)c2)c(Cl)nc2ncnn12)C(F)(F)F

>  <valueKind>
fold change (FC)

>  <resultNumber>
1.85

$$$$
>  <compound>
Fc1cc(F)c(-c2c(Cl)nc3ncnn3c2NC2CC2)c(F)c1

>  <valueKind>
fold change (FC)

>  <resultNumber>
1.17

$$$$
>  <compound>
C[C@H](Nc1c(-c2ccc(C#N)cc2F)c(Cl)nc2ncnn12)C(F)(F)F

>  <valueKind>
fold change (FC)

>  <resultNumber>
2.01

$$$$
>  <compound>
Fc1cc(F)c(-c2c(Cl)nc3ncnn3c2N2CCC2)c(F)c1

>  <valueKind>
fold change (FC)

>  <resultNumber>
0.98

$$$$
>  <compound>
CC(C)[C@@H](C)Nc1c(-c2ccc(C#N)cc2F)c(Cl)nc2ncnn12 (stereo in doubt; 68)

>  <valueKind>
fold change (FC)

>  <resultNumber>
2.15

$$$$
>  <compound>
C[C@H](Nc1c(-c2ccc(F)cc2)c(Cl)nc2ncnn12)C(F)(F)F

>  <valueKind>
fold change (FC)

>  <resultNumber>
1.05

$$$$
>  <compound>
CC(C)[C@@H](C)Nc1c(-c2ccccc2F)c(Cl)nc2ncnn12

>  <valueKind>
fold change (FC)

>  <resultNumber>
0.95

$$$$
>  <compound>
N#Cc1cc(F)c(-c2c(Cl)nc3ncnn3c2N2CCCCCCC2)c(F)c1

>  <valueKind>
fold change (FC)

>  <resultNumber>
3.24

$$$$
>  <compound>
CCCNc1c(-c2c(F)cc(F)cc2F)c(Cl)nc2ncnn12

>  <valueKind>
fold change (FC)

>  <resultNumber>
1.15

$$$$
>  <compound>
C[C@H](Nc1c(-c2ccc(F)cc2F)c(Cl)nc2ncnn12)C(F)(F)F

>  <valueKind>
fold change (FC)

>  <resultNumber>
1.54

$$$$
>  <compound>
CC(CF)Nc1c(-c2c(F)cc(F)cc2F)c(Cl)nc2ncnn12 (stereo not given)

>  <valueKind>
fold change (FC)

>  <resultNumber>
1.32

$$$$
>  <compound>
CC(C)[C@@H](C)Nc1c(-c2ccc(C#N)cc2F)c(Cl)nc2ncnn12 (stereo in doubt; 67)

>  <valueKind>
fold change (FC)

>  <resultNumber>
2.79

$$$$
>  <compound>
C[C@H](Nc1c(-c2c(F)cc([S@@+]([O-])CCCN(C)C)cc2F)c(Cl)nc2ncnn12)C(F)(F)F

>  <valueKind>
fold change (FC)

>  <resultNumber>
1.49

$$$$
>  <compound>
C[C@@H](Nc1c(-c2ccc(C#N)cc2F)c(Cl)nc2ncnn12)C(C)(C)C

>  <valueKind>
fold change (FC)

>  <resultNumber>
4.41

$$$$
>  <compound>
CSc1cc(F)c(-c2c(Cl)nc3ncnn3c2N[C@@H](C)C(F)(F)F)c(F)c1

>  <valueKind>
fold change (FC)

>  <resultNumber>
1.75

$$$$
>  <compound>
C[C@H](Nc1c(-c2c(F)cc(Cl)cc2F)c(Cl)nc2ncnn12)C(F)(F)F

>  <valueKind>
fold change (FC)

>  <resultNumber>
1.88

$$$$
>  <compound>
N#Cc1cc(F)c(-c2c(Cl)nc3ncnn3c2N2CCCCCC2)c(F)c1

>  <valueKind>
fold change (FC)

>  <resultNumber>
6.4

$$$$
>  <compound>
Fc1cc(F)c(-c2c(Cl)nc3ncnn3c2NCc2ccccc2)c(F)c1

>  <valueKind>
fold change (FC)

>  <resultNumber>
1.05

$$$$
>  <compound>
C[C@H](Nc1c(Cc2c(F)cc(F)cc2F)c(Cl)nc2ncnn12)C(F)(F)F

>  <valueKind>
fold change (FC)

>  <resultNumber>
1.26

$$$$
>  <compound>
C[C@H](Nc1c(-c2c(F)cccc2F)c(Cl)nc2ncnn12)C(F)(F)F

>  <valueKind>
fold change (FC)

>  <resultNumber>
2.2

$$$$

---

- assayInfo: Ratio of drug concentration in brain to plasma in CD-1 mouse at 2.5 mg/kg, ip administered as single cassette dosing and measured after 1 hr
- Type: ADME, organism-based
- assayContext: read-out: BPR
Readings of Kp at 1 h for the listed molecules

>  <testSmiles>
N#Cc1cc(F)c(-c2c(Cl)nc3ncnn3c2N2CCCCCC2)c(F)c1

>  <Kp at 1 h>
0.7

$$$$
>  <testSmiles>
C[C@@H](Nc1c(-c2c(F)cc(C#N)cc2F)c(Cl)nc2ncnn12)C(C)(C)C

>  <Kp at 1 h>
0.7

$$$$
>  <testSmiles>
CC(C)[C@@H](C)Nc1c(-c2c(F)cc(C#N)cc2F)c(Cl)nc2ncnn12

>  <Kp at 1 h>
0.7

$$$$

The values you see were collected from ChEMBL document CHEMBL4732138.
